Reference for the values: PubChem BioAssay AID179

Listing of entries alongside the reported IC50.
- System: CEM cells HIV-1 protection, formazan growth assay
- test_name: NCI AIDS Antiviral Assay
- test_parameters: measured here: growth of uninfected CEM cells
Where a SMILES comes first, the peptide text is derived from it. The star is where a group is joined. Boc = CC(C)(C)OC(=O)*; OSu = O=C1CCC(=O)N1O*
attribute_measured: IC50 (µM)

# molecule, value_units, lt_gt_eq, result_value
records = [
    ("CCOC(=O)c1ncn2c1[nH]c(=O)c1ccccc12", "µM", ">", 7.41),
    ("O=S(c1ccc(Cl)cc1)S(=O)c1ccc(Cl)cc1 (configuration not stated)", "µM", "=", 18.2),
    ("Cc1ccc([N+](=O)[O-])cc1NC(=O)C(=O)Cc1cc(=O)oc2cc(O)ccc12", "µM", "=", 363),
    ("Nn1c(SCC(=O)NCc2ccccc2)nc2ccccc2c1=O", "µM", "=", 95.5),
    ("NN=C1/C(=C\\c2ccccc2)CCC/C1=C/c1ccccc1", "µM", ">", 64.6),
    ("COc1ccc2c(c1)CCc1c(-c3noc4c3CCc3cc(OC)ccc3-4)noc1-2", "µM", ">", 234),
    ("COCn1c2ccc(OC(C)=O)cc2c2c(=O)oc(N(C)C)nc21", "µM", ">", 200),
    ("O=C(/C=C(\\Nc1ccccc1O)c1ccccc1)C(=O)NC12CC3CC(CC(C3)C1)C2", "µM", ">", 200),
    ("CN1C(=O)C(=O)n2c(cc3ccccc32)C1=O", "µM", ">", 6.31),
    ("O=c1[nH]n(Cc2ccccc2)c2ccc([N+](=O)[O-])cc12", "µM", "=", 25.7),
    ("CCOC(=O)C(=Cc1ccccc1F)C(=O)OCC", "µM", "=", 25.7),
    ("CC(=O)N1C(C(=O)NNc2ccccc2)CSC1c1ccccc1 (configuration not stated)", "µM", "=", 12.3),
    ("COc1cc(/C=C/C(=N\\NC(=O)c2ccccc2)c2sc(Nc3ccc(Cl)c(Cl)c3)nc2C)ccc1O", "µM", "=", 38.9),
    ("Cc1cn(C2CC3C(COC(C)N3O)O2)c(=O)[nH]c1=O (configuration not stated)", "µM", ">", 200),
    ("NC(=O)c1c(Cl)nc2n1CCS2", "µM", ">", 200),
    ("COc1ccc(CCN=C2OCc3ccccc32)cc1OC", "µM", "=", 11.7),
    ("CC(NC(=O)C(NC(=O)OC(C)(C)C)C(C)C)C(=O)NCC(=O)ON1C(=O)CCC1=O (stereo not drawn) (Boc-Val-Ala-Gly-OSu; configuration not given here)", "µM", "=", 117),
    ("N#Cc1ccc(C2ON=C(c3ccccc3)N2C23CC4CC(CC(C4)C2)C3)cc1 (configuration not stated)", "µM", "=", 151),
    ("CCN(CC)CCCCCCNc1cc(C)cc2cccnc12", "µM", "=", 20.9),
    ("O=C(COc1ccc(OCC(=O)N2C(=O)CC(=O)N(c3ccccc3)C2=S)cc1)N1C(=O)CC(=O)N(c2ccccc2)C1=S", "µM", "=", 75.9),
    ("S=C(N/N=C/c1ccccn1)Nc1ccc(Cl)cc1", "µM", "=", 0.0891),
    ("CCOC(=O)C(=O)NNc1cc(=O)n(C)c(=O)n1C", "µM", ">", 200),
]
